Data provenance is patent US20230212304A1.

TARGET_OR_SYSTEM: T1, recombinant human CTLA4-his protein (Acro biosystems, Cat#CT4-H5229) (human, UniProt P16410 37-162)
T1 construct: bought recombinant protein; not shown: his tag
T1 sequence (looked up): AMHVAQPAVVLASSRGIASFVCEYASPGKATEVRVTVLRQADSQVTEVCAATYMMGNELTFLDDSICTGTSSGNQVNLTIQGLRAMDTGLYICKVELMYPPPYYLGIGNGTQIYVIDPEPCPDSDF
RUN_DESCRIPTION: BLI, Octet; antibody from cell supernatant on AHC sensor, CTLA4-his as analyte
REPORTED_ENDPOINT: kon (M⁻¹ s⁻¹)

{"BINDER": "huC1D1-V8 (antibody, human IgG4 S228P, kappa, V domains shown, humanized IgG4/kappa; cell supernatant on Octet, purified antibody in Biacore, ELISA, FACS and the functional assay; also called hu CTLA4 C1D1-V8) VH: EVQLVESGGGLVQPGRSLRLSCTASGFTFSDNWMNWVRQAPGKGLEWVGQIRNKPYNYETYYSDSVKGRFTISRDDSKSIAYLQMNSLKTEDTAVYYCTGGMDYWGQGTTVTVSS VL: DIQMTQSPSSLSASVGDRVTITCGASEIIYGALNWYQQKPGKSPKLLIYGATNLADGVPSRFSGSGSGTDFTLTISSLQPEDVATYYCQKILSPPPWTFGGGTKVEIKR", "UNIT_ABBREVIATION": "M⁻¹ s⁻¹", "MEASURED_VALUE": 309000}
{"BINDER": "huD1D5-V10 (antibody, human IgG4 S228P, kappa, V domains shown, humanized IgG4/kappa; tested as 293F cell supernatant on Octet; also called hu CTLA4 D1D5-V10) VH: EVQLVESGGGLVKPGGSLRLSCAASGFTFSDYGMAWVRQAPGKGLEWVAFISNLAYSVYYADTETGRFTISRDNAKNSLYLQMNSLRAEDTAVYYCARSGLPYAMDYWGQGTTVTVSS VL: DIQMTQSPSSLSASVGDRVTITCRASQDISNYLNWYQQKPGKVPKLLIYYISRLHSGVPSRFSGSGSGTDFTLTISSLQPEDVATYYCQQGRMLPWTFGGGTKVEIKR", "UNIT_ABBREVIATION": "M⁻¹ s⁻¹", "MEASURED_VALUE": 49300}
